The reported measurements were obtained from paper PMC7523975.

Study Target: acetylcholinesterase (AChE, TcAChE) (Tetronarce californica, UniProt P04058)
Sequence (P04058 22-564): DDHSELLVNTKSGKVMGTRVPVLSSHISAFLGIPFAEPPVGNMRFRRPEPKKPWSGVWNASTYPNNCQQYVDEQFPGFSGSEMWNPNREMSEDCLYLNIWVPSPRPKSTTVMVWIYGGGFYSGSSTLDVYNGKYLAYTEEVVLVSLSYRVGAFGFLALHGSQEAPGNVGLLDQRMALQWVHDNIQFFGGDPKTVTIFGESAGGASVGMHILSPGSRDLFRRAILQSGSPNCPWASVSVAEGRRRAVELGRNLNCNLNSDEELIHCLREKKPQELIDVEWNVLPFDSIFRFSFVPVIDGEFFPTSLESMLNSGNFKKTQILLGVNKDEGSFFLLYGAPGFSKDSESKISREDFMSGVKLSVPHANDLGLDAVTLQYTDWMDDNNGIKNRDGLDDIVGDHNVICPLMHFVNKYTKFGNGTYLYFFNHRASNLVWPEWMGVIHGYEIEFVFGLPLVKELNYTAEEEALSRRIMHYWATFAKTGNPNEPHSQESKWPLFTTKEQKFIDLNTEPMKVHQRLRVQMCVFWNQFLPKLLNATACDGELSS
Test Method Notes: Ellman colorimetric assay with commercial enzyme, […] nm
Format: biochemical
Quantity Name: IC50 (µM)
API: value field is a number in µM; no unit string.

| Compound | IC50 (µM) |
| --- | --- |
| CN(CCCCNC(=O)/C=C/c1ccccc1)CCCNC(=O)/C=C/c1ccccc1 | 19.6 |

Kindly consider the entry below.
The reported IC50 of the compound COC1=CC2CCNC3CC4(C=CC(=O)C=C4)C(=C1OC)C23 (centres unmarked) was 61.2
